Reported EC50 hC3 cleavage values for the following binders.
Target: plasma purified human complement protein C3 (human) (UniProt P01024)
Sequence (P01024 23-667, chain 1 of 2): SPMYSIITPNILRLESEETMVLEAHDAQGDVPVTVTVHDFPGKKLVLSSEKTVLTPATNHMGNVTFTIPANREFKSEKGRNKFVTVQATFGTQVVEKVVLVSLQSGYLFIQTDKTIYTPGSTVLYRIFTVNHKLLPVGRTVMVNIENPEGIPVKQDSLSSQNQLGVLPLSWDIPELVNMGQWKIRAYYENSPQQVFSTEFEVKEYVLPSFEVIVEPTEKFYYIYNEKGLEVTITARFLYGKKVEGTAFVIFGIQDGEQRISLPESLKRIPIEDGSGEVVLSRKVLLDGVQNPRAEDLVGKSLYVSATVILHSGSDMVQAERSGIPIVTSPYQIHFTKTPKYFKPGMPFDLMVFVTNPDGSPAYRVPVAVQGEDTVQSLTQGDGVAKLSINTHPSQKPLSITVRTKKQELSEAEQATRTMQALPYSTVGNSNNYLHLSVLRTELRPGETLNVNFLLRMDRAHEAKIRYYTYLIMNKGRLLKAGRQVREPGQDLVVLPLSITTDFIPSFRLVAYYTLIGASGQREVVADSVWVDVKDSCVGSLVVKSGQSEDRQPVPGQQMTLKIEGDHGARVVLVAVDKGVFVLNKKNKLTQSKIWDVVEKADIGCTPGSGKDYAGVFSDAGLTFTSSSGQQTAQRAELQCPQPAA
Sequence (P01024 672-1663, chain 2 of 2): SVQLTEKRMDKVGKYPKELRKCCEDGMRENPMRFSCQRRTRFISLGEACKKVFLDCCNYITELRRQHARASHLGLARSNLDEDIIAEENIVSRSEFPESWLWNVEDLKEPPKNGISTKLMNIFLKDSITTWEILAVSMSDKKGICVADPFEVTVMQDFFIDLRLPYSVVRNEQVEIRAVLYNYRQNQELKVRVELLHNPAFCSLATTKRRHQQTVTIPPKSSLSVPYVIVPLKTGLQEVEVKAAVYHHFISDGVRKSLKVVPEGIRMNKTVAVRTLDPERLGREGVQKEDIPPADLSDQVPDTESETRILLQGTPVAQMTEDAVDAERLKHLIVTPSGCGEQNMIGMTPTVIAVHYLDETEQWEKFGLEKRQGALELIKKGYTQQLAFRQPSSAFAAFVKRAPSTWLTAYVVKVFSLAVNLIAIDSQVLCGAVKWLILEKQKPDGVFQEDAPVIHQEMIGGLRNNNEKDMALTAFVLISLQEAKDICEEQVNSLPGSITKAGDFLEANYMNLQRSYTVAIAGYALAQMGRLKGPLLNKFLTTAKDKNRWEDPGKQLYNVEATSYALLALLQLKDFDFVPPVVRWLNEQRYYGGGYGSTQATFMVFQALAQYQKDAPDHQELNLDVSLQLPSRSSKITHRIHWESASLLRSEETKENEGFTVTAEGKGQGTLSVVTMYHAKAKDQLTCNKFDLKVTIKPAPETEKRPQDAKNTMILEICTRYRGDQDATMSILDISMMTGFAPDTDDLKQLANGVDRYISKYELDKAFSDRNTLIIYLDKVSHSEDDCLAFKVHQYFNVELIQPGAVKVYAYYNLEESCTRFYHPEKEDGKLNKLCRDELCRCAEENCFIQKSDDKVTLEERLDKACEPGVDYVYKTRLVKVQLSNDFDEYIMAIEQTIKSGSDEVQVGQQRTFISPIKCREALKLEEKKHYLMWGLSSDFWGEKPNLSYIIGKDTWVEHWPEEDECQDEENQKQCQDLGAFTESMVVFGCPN
Assay: cell-based or functional assay

[
  {
    "binder": "MTSP-1 protease domain Q38F/I41S/Y60gA/C122S/G151N/Q192R (enzyme) VVGGTDADEGEWPWQVSLHALGFGHSCGASLISPNWLVSAAHCYIDDRGFRASDPTQWTAFLGLHDQSQRSAPGVQERRLKRIISHPFFNDFTFDYDIALLELEKPAEYSSMVRPISLPDASHVFPAGKAIWVTGWGHTQYGGTNALILQKGEIRVINQTTCENLLPQQITPRMMCVGFLSGGVDSCRGDSGGPLSSVEADGRIFQAGVVSWGDGCAQRNKPGVYTRLPLFRDWIKENTGV",
    "EC50 hC3 cleavage, nM": 33.1
  },
  {
    "binder": "MTSP-1 protease domain I41S/Y59F/ins97aV/C122S/G187D/Q192V/D217V (enzyme) VVGGTDADEGEWPWQVSLHALGQGHSCGASLISPNWLVSAAHCFIDDRGFRYSDPTQWTAFLGLHDQSQRSAPGVQERRLKRIISHPFFNDFVTFDYDIALLELEKPAEYSSMVRPISLPDASHVFPAGKAIWVTGWGHTQYGGTGALILQKGEIRVINQTTCENLLPQQITPRMMCVGFLSGDVDSCVGDSGGPLSSVEADGRIFQAGVVSWGVGCAQRNKPGVYTRLPLFRDWIKENTGV",
    "EC50 hC3 cleavage, nM": 8.35
  },
  {
    "binder": "MTSP-1 protease domain F97S/F99L/C122S/G151N/Q175I/Q192T/D217T (enzyme) VVGGTDADEGEWPWQVSLHALGQGHICGASLISPNWLVSAAHCYIDDRGFRYSDPTQWTAFLGLHDQSQRSAPGVQERRLKRIISHPFFNDSTLDYDIALLELEKPAEYSSMVRPISLPDASHVFPAGKAIWVTGWGHTQYGGTNALILQKGEIRVINQTTCENLLPQIITPRMMCVGFLSGGVDSCTGDSGGPLSSVEADGRIFQAGVVSWGTGCAQRNKPGVYTRLPLFRDWIKENTGV",
    "EC50 hC3 cleavage, nM": 524
  }
]
